The measured values listed here are drawn from ChEMBL document CHEMBL4513216.

Recorded INHIBITION values for a group of compounds are listed next.
Tested on: Plasmodium falciparum
assayName: Screen against P. falciparum Asexual Blood Stage (ABS), at 5uM
Format: functional, Dd2
conditionInfo: tested at 5 uM
Out of some 65,000 compounds screened, about 2,100 (3.2%) showed an effect of 50% or more. The median lay at about -52%. What follows is part of a selection rich in strong results, with near analogues and random picks from the rest.
Hey, just the number and the unit after it is fine.

# example entries with known answers
*Q* Fill in the blank: the reported INHIBITION of Cc1cc(Nc2ccc(F)cn2)cc(C2CCN(Cc3ncc[nH]3)C2)n1 (stereo not given) is ____.
*A* -49.2%

*Q* Fill in the blank: the reported INHIBITION of COc1ccccc1C1CNCCN1C(=O)c1ccc(F)cc1 (stereo not given) is ____.
*A* 69.7%

*Q* Fill in the blank: the reported INHIBITION of `COCCO[C@@H]1CCN(Cc2csc(C)n2)[C@H]1Cc1ccccc1` is ____.
*A* 65.8%

*Q* Fill in the blank: the reported INHIBITION of `O=C(N1CCCC1)N1CCC[C@]2(C[C@@H](Oc3ncccc3F)CO2)C1` is ____.
*A* -39%

*Q* Fill in the blank: the reported INHIBITION of `CCCc1ncc(C(=O)N2CCOc3ncccc32)s1` is ____.
*A* -13.4%

*Q* Fill in the blank: the reported INHIBITION of CN1CCN(C(CNC(=O)CCn2cccn2)c2cccs2)CC1 (stereo not given) is ____.
*A* -29.5%

*Q* Fill in the blank: the reported INHIBITION of `Fc1ccc(Nc2ccc(C3CCN(Cc4ncc[nH]4)CC3)nc2)nc1` is ____.
*A* 63.1%

*Q* Fill in the blank: the reported INHIBITION of Cc1c[nH]nc1C1CCCN1Cc1ncc[nH]1 (stereo not given) is ____.
*A* 34.9%

Attention now shifts to the item below.
*Q* Fill in the blank: the reported INHIBITION of `Cc1nc(CN2CC[C@H](OCC3CC3)[C@@H]2Cc2cccnc2)cs1` is ____.
*A* 60.4%

----------
Test system: Plasmodium falciparum
assayName: Screen against P. falciparum Asexual Blood Stage (ABS), at 5uM
Type: functional, Dd2
conditionInfo: tested at 5 uM
Hit rate of the full screen: of about 65,000 compounds, about 2,100 (3.2%) showed an effect of 50% or more. The median lay at about -52%. The sample holds strong results, similar compounds and a random draw of the others, so the mix is not that of the screen.
measurementKind: INHIBITION (%)
Please give a number only; it is taken to be in %.

*Q* Fill in the blank: the reported INHIBITION of Cc1ccc(CN2CCN(c3nc4c(s3)c(C)nn4C)C(C)C2=O)cc1 (stereo not given) is ____.
*A* 69.8

*Q* Fill in the blank: the reported INHIBITION of COc1ccc(OCC2CCCN(Cc3ccncc3)C2)cc1 (stereo not given) is ____.
*A* 4.05

*Q* Fill in the blank: the reported INHIBITION of `CC(=O)c1c(C)nn(CC(=O)Nc2ccc(F)cc2)c1C` is ____.
*A* -44.1

*Q* Fill in the blank: the reported INHIBITION of `c1ccc(-c2nnc3n2CCN(Cc2ccc4c(c2)OCCO4)C3)cc1` is ____.
*A* 58.5

*Q* Fill in the blank: the reported INHIBITION of COc1cccc(CN2CCCCCC2c2cccc(C)c2)c1O (stereo not given) is ____.
*A* 57.5

*Q* Fill in the blank: the reported INHIBITION of CCN1CCN(c2ccc(F)cc2C(C)NCc2noc(C)n2)CC1 (stereo not given) is ____.
*A* 53.9
